Entry source: patent US9108903B2

target.of.assay: human Nav1.8 (Homo sapiens (Human), UniProt Q9Y5Y9)
Sequence (Q9Y5Y9 whole entry): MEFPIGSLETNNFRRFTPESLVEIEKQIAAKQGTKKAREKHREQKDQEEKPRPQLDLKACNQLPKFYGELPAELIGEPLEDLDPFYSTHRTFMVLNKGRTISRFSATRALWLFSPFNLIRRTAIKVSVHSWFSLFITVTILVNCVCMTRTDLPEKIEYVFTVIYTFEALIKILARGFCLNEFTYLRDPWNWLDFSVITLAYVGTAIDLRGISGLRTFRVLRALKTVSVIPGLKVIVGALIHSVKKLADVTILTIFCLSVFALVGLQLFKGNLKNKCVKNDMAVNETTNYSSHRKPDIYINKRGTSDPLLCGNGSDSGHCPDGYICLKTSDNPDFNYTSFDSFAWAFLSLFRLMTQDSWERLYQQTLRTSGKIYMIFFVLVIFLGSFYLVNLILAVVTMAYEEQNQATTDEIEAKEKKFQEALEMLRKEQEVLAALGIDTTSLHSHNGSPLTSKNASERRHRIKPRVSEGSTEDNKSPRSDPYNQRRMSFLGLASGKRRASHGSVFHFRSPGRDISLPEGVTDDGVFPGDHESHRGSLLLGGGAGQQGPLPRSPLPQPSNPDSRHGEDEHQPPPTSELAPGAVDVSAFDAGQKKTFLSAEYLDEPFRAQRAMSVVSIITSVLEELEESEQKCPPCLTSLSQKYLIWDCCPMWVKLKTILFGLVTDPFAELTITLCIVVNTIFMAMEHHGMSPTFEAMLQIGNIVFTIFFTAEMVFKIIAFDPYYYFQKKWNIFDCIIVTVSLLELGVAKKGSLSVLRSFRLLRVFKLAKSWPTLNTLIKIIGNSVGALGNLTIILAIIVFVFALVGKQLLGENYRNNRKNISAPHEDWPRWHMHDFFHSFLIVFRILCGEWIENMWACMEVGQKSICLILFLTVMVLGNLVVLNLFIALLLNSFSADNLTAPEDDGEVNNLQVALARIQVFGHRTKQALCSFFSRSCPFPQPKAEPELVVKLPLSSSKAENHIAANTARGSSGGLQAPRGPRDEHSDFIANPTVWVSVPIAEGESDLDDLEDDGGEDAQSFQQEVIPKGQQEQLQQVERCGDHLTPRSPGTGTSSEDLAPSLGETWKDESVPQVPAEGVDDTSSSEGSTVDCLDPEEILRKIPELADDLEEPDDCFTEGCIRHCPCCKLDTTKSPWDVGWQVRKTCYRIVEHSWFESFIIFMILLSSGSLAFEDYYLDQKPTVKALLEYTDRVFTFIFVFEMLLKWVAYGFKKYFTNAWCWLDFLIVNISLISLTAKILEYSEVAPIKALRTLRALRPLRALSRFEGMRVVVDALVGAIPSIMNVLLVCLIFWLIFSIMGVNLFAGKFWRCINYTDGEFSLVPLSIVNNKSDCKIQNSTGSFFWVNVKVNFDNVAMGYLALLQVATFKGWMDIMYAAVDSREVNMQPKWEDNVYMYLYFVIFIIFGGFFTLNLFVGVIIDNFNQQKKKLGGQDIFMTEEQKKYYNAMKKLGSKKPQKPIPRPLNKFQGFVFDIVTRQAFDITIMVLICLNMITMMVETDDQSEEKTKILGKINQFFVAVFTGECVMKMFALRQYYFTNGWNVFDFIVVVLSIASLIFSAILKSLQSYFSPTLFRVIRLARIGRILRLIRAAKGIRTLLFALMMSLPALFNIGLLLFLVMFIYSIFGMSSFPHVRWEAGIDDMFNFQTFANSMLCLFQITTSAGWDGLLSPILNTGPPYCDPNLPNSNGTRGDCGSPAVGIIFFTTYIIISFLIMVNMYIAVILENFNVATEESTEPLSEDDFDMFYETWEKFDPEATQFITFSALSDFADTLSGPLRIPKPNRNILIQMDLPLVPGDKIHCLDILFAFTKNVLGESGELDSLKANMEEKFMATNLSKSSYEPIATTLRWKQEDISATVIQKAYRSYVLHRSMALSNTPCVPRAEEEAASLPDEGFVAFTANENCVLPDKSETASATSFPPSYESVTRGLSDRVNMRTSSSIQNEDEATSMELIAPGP
assay.method.text: E-VIPR optical membrane potential assay with electrical stimulation
reported.conditions: HEK cells expressing human Nav1.8
pIC50: −log10 of the molar value.
measured.parameter: pIC50

- record.smiles: "O=C(O)c1ccc(NC(=O)c2c(Oc3ccc(F)cc3)cc(C(F)(F)F)cc2C(F)(F)F)cn1"
  recorded.value: 6.89
- record.smiles: "COc1cc(F)ccc1Oc1cc(C(C)(C)C)ccc1C(=O)Nc1ccc(C(=O)O)nc1"
  recorded.value: 7.51
- record.smiles: "COc1ccc(Oc2cc(Cl)c(Cl)cc2C(=O)Nc2ccc(C(=O)O)cc2)c(F)c1"
  recorded.value: 6.94
- record.smiles: "Cc1cc(Cl)ccc1Oc1cc(Cl)c(Cl)cc1C(=O)Nc1ccc(C(=O)O)cc1"
  recorded.value: 7.62
- record.smiles: "O=C(O)c1ccc(NC(=O)c2ccc(C(F)(F)F)cc2Oc2ccc(F)cc2)cn1"
  recorded.value: 6.60
- record.smiles: "O=C(O)c1ccc(NC(=O)c2cc(Cl)c(Cl)cc2Oc2ccc(F)cc2)cn1"
  recorded.value: 7.47
- record.smiles: "Cc1cc(F)ccc1Oc1cc(C(F)(F)F)ccc1C(=O)Nc1ccc(C(=O)O)cc1"
  recorded.value: 7.22
- record.smiles: "COc1ccccc1Oc1ccc(C(F)(F)F)cc1C(=O)Nc1ccc(C(=O)O)nc1"
  recorded.value: 6.43
- record.smiles: "Cc1cc(F)ccc1Oc1cc(C(F)(F)F)cc(C(F)(F)F)c1C(=O)Nc1ccc(C(=O)O)cc1"
  recorded.value: 6.89
- record.smiles: "O=C(O)c1ccc(NC(=O)c2cc(Cl)c(Cl)cc2Oc2ccc(OC(F)(F)F)cc2)cc1"
  recorded.value: 7.62
- record.smiles: "COc1ccc(Oc2cc(Cl)c(Cl)cc2C(=O)Nc2ccc(C(=O)O)nc2)c(F)c1"
  recorded.value: 7.28
- record.smiles: "COc1cc(F)ccc1Oc1cc(C(F)(F)F)cc(C(F)(F)F)c1C(=O)Nc1ccc(C(=O)O)nc1"
  recorded.value: 7.85
- record.smiles: "O=C(O)c1ccc(NC(=O)c2cc(Cl)c(Cl)cc2Oc2ccccc2)cc1"
  recorded.value: 6.54
- record.smiles: "Cc1cc(F)ccc1Oc1ccc(C(F)(F)F)cc1C(=O)Nc1ccc(C(=O)O)nc1"
  recorded.value: 6.97
- record.smiles: "O=C(O)c1ccc(NC(=O)c2c(Oc3ccc(F)cc3F)cc(C(F)(F)F)cc2C(F)(F)F)cc1"
  recorded.value: 6.39
- record.smiles: "O=C(O)c1ccc(NC(=O)c2cc(Cl)c(Cl)cc2Oc2ccc(F)cc2)cc1"
  recorded.value: 7.24
- record.smiles: "COc1ccc(Oc2cc(Cl)c(Cl)cc2C(=O)Nc2ccc(C(=O)O)nc2)cc1F"
  recorded.value: 7.47
